Values were extracted from paper PMC11954145.

- protocolNotes: Lipophilicity determination by RP-HPLC (log k, log D)
- Assay type: physicochemical
- condition: RP-HPLC C18, MeOH 72 % / acetate-buffered saline pH 7.4
propertyMeasured: log D7.4
Please reply with the value in numeric form only.

Looking for the measured log D7.4 of Cc1ccc(NC(=O)c2c(O)ccc3ccccc23)cc1 [Compound 10] , can you help? 0.1632

Looking for the measured log D7.4 of COc1ccc(C)cc1NC(=O)c1c(O)ccc2ccccc12 [Compound 15] , can you help? 0.5012

Looking for the measured log D7.4 of Cc1ccc(NC(=O)c2c(O)ccc3ccccc23)cc1C(F)(F)F [Compound 23] , can you help? 0.4636

Looking for the measured log D7.4 of Cc1cccc(NC(=O)c2c(O)ccc3ccccc23)c1 [Compound 9] , can you help? 0.1727

Looking for the measured log D7.4 of COc1ccc(C(F)(F)F)cc1NC(=O)c1c(O)ccc2ccccc12 [Compound 20] , can you help? 0.5305

###

- Tested on: S. aureus ATCC 29213
- protocolNotes: Antibacterial screening, broth microdilution MIC
- Type: cell-based
- condition: Staphylococcus aureus, ATCC29213; ATCC 29213, 24 h at 37 °C; read-out: MIC S. aureus
propertyMeasured: MIC (µM)
Number only, in µM; omit the unit.

Some solved cases for reference:
> print(dat)
                                   compound  experimentalresult
1  COc1ccc(Br)cc1NC(=O)c1c(O)ccc2ccccc12 [Compound 19]                 688
2  COc1ccc(C)cc1NC(=O)c1c(O)ccc2ccccc12 [Compound 15]                 833
3  COc1ccc(Cl)c(NC(=O)c2c(O)ccc3ccccc23)c1 [Compound 18]                48.8
4  COc1cc(NC(=O)c2c(O)ccc3ccccc23)cc(OC)c1OC [Compound 7]                 838
5  COc1cc(NC(=O)c2c(O)ccc3ccccc23)cc(OC)c1 [Compound 6]                 198

Looking for the measured MIC of Cc1ccccc1NC(=O)c1c(O)ccc2ccccc12 [Compound 8] , can you help? 462

Looking for the measured MIC of O=C(Nc1ccc([N+](=O)[O-])c(C(F)(F)F)c1)c1c(O)ccc2ccccc12 [Compound 27] , can you help? 0.332

Looking for the measured MIC of COc1cccc(NC(=O)c2c(O)ccc3ccccc23)c1 [Compound 3] , can you help? 436

###

# MIC listing for each entry below
- Tested on: MRSA SA 3202
- protocolNotes: Antibacterial screening, broth microdilution MIC
- Format: cell-based, methicillin-resistant S. aureus
- condition: Staphylococcus aureus, clinical isolate, 24 h at 37 °C, read-out: MIC MRSA SA 3202
Note to self: number, then unit, no commentary.

> print(dat)
                                 itemsmiles  experimentalresult
1  Cc1ccc(NC(=O)c2c(O)ccc3ccccc23)cc1C(F)(F)F             46.3 µM
2  COc1cc(NC(=O)c2c(O)ccc3ccccc23)cc(OC)c1OC              419 µM
3     COc1ccc(Br)cc1NC(=O)c1c(O)ccc2ccccc12              688 µM
4        Cc1ccc(NC(=O)c2c(O)ccc3ccccc23)cc1              462 µM

Now for another entry.
Looking for the measured MIC of "COc1ccc(C(F)(F)F)cc1NC(=O)c1c(O)ccc2ccccc12" , can you help? 709 µM

###

- Tested on: Mycobacterium kansasii DSM 44162
- protocolNotes: Antimycobacterial screening, broth dilution MIC
- Assay type: cell-based
- condition: DSM44162, 336 h, DSM 44162, 14 days at 37 °C, read-out: MIC M. kansasii
Checkbox rule: MIC lower than 800 µM = criterion met; MIC not lower than 800 µM = criterion not met.

# count of solved cases: 3
> print(dat)
                                 itemsmiles         grouplabel
1     Cc1cc(C)cc(NC(=O)c2c(O)ccc3ccccc23)c1      criterion met
2  COc1cc(NC(=O)c2c(O)ccc3ccccc23)cc(OC)c1OC  criterion not met
3  O=C(Nc1ccccc1[N+](=O)[O-])c1c(O)ccc2ccccc12      criterion met

Strictly below 800 µM: is that where MIC of "COc1cc(NC(=O)c2c(O)ccc3ccccc23)cc(OC)c1" sits? criterion met

###

- protocolNotes: in vitro
- condition: human
propertyMeasured: CC50 at 24 h

Some solved cases for reference:
> print(dat)
                                   compound  experimentalresult
1  O=C(Nc1ccc([N+](=O)[O-])c(C(F)(F)F)c1)c1c(O)ccc2ccccc12             > 30 µM
2     Cc1cc(C)cc(NC(=O)c2c(O)ccc3ccccc23)c1             > 30 µM
3  Cc1ccc(C(F)(F)F)cc1NC(=O)c1c(O)ccc2ccccc12             > 30 µM

Looking for the measured CC50 at 24 h of "COc1cc(NC(=O)c2c(O)ccc3ccccc23)cc(OC)c1" , can you help? > 30 µM

Looking for the measured CC50 at 24 h of CC[C@@]1(O)C(=O)OCc2c1cc1n(c2=O)Cc2cc3ccccc3nc2-1 [CMP, camptothecin, reference compound] , can you help? 0.16 µM

###

- Tested on: VRE 342B
- protocolNotes: Antibacterial screening, broth microdilution MIC
- Assay type: cell-based, vancomycin-resistant E. faecalis
- condition: Enterococcus, vanA isolate, 24 h at 37 °C, read-out: MIC VRE 342B
propertyMeasured: MIC (µM)
Number only, in µM; omit the unit.

Some solved cases for reference:
> print(dat)
                                 itemsmiles  targetortestsystem  propertymeasured  unittext  experimentalresult
1      COc1ccc(C)cc1NC(=O)c1c(O)ccc2ccccc12            VRE 342B               MIC        µM                 833
2      COc1cccc(C)c1NC(=O)c1c(O)ccc2ccccc12            VRE 342B               MIC        µM                 208
3   COc1ccc(Cl)c(NC(=O)c2c(O)ccc3ccccc23)c1            VRE 342B               MIC        µM                 781
4  Cc1cc(C)c(NC(=O)c2c(O)ccc3ccccc23)c(C)c1            VRE 342B               MIC        µM                 838

Now for another entry.
Looking for the measured MIC of "COc1cc(NC(=O)c2c(O)ccc3ccccc23)cc(OC)c1" , can you help? 792

###

- protocolNotes: Lipophilicity determination by RP-HPLC (log k, log D)
- Type: physicochemical
- condition: RP-HPLC C18, MeOH 72 % / acetate-buffered saline pH 7.4
Checkbox rule: log D7.4 lower than 0.2 = 1; log D7.4 not lower than 0.2 = -1.

> print(dat)
                                 itemsmiles  grouplabel
1  O=C(Nc1ccccc1[N+](=O)[O-])c1c(O)ccc2ccccc12          -1
2   COc1ccc(OC)c(NC(=O)c2c(O)ccc3ccccc23)c1          -1
3       Cc1cccc(C)c1NC(=O)c1c(O)ccc2ccccc12           1
4  Cc1ccc(C(F)(F)F)cc1NC(=O)c1c(O)ccc2ccccc12          -1
5       COc1cccc(NC(=O)c2c(O)ccc3ccccc23)c1           1

Strictly below 0.2: is that where log D7.4 of "Cc1cc(C)c(NC(=O)c2c(O)ccc3ccccc23)c(C)c1" sits? -1

Strictly below 0.2: is that where log D7.4 of "COc1ccc(NC(=O)c2c(O)ccc3ccccc23)cc1C(F)(F)F" sits? 1

Strictly below 0.2: is that where log D7.4 of "COc1cc(NC(=O)c2c(O)ccc3ccccc23)cc(OC)c1OC" sits? 1

Strictly below 0.2: is that where log D7.4 of "COc1ccc(C)c(NC(=O)c2c(O)ccc3ccccc23)c1" sits? 1

###

- System: Enterococcus faecalis ATCC 29212
- protocolNotes: Antibacterial screening, broth microdilution MIC
- Assay type: cell-based
- condition: ATCC29212, ATCC 29212, 24 h at 37 °C, read-out: MIC E. faecalis
# MIC listing for each entry below
Number only, in µM; omit the unit.

> print(dat)
                                   molecule  experimentalresult
1   COc1ccc(OC)c(NC(=O)c2c(O)ccc3ccccc23)c1                 792
2  CC1(C)S[C@@H]2[C@H](NC(=O)[C@H](N)c3ccccc3)C(=O)N2[C@H]1C(=O)O [AMP, ampicillin, reference compound]                2.81
3    COc1ccc(C)c(NC(=O)c2c(O)ccc3ccccc23)c1                 833
4        Cc1cccc(NC(=O)c2c(O)ccc3ccccc23)c1                 462
5   COc1cc(NC(=O)c2c(O)ccc3ccccc23)cc(OC)c1                 792

Looking for the measured MIC of "COc1cc(NC(=O)c2c(O)ccc3ccccc23)cc(OC)c1OC" , can you help? 724
